The values you see were collected from patent US20260193238A1.

Target Entity: PARP1 (Homo sapiens, UniProt P09874)
Sequence (P09874 whole entry): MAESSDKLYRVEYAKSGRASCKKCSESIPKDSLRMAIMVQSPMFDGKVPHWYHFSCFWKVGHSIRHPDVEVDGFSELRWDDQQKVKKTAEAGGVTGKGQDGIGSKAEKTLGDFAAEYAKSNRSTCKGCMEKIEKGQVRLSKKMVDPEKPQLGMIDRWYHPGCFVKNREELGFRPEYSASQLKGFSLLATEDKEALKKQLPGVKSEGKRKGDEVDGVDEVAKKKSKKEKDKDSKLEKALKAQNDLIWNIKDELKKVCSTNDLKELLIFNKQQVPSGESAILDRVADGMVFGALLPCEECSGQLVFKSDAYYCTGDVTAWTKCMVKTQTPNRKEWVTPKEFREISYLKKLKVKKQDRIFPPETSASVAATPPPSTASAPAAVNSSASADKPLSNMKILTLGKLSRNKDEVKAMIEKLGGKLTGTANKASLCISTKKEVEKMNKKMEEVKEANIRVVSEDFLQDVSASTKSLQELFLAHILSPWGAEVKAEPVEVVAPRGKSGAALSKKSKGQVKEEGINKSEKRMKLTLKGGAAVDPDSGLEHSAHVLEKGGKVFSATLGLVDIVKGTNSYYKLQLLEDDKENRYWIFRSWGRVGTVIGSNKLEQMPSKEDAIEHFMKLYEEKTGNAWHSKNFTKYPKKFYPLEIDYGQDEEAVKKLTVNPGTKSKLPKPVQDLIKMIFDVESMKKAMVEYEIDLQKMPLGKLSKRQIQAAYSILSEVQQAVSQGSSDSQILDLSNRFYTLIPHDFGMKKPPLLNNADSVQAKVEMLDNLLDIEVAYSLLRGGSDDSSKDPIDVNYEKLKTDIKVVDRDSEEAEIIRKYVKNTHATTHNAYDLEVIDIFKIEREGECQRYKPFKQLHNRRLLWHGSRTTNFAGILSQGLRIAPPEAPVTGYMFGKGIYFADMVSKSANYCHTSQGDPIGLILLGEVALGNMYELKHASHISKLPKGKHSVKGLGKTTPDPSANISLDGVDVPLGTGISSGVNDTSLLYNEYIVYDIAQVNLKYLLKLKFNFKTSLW
Assay Protocol: PARP1 biochemical DELFIA assay (auto-PARylation)
Run Parameters: Table 1A
IC50 by entry:

Molecule	Result
COC1CC(c2cc(C(F)(F)F)c(=O)[nH]n2)N(CC(=O)N2CCN(c3ncc(C(F)(F)F)cn3)CC2)C1 (single isomer, unassigned) [Compound 138cis2]	1000 to 10000 nM
CN(c1ncc(C(F)(F)F)cn1)C1CN(C(=O)CN2CCCC2c2cc(C(F)(F)F)c(=O)[nH]n2)C1 (single isomer, unassigned) [Compound 127b]	1000 to 10000 nM
N#Cc1ccc2nc(N3CCN(C(=O)CN4CCCC4c4cc(C(F)(F)F)c(=O)[nH]n4)CC3)oc2c1 (single isomer, unassigned) [Compound 96b]	≤ 10 nM
O=C(CN1CCCC1c1c[nH]c(=O)c(C(F)(F)F)n1)N1CCN(c2ncc(C(F)(F)F)cn2)CC1 (single isomer, unassigned) [Compound 84a]	1000 to 10000 nM
O=C(CN1CCCC1c1cc(C(F)(F)F)c(=O)[nH]n1)N1CCN(c2cc(Cl)c(F)cn2)CC1 (single isomer, unassigned) [Compound 80b]	10 to 100 nM

# next molecule below
**Q:** Answer briefly: IC50 recorded on PARP1 (Homo sapiens, UniProt P09874) for O=C(CN1CCCC1c1cc(C(F)(F)F)c(=O)[nH]n1)N1CCN(c2ccc(F)cn2)CC1 (single isomer, unassigned) [Compound 46a]
**A:** 10 to 100 nM
